- Tested on: Escherichia coli
- methodNotes: Antibacterial efficacy against Escherichia coli LSU 80-8 infected ip dosed CD1 mouse model
- Assay type: functional
So basically, if ED50 comes in under 20 mg/kg it's fulfilled, and if it's 20 mg/kg or more it's not fulfilled.

* O=C([O-])C1=CS[C@@H]2/C(=C\c3cn4c(n3)nc3n4CCCC3)C(=O)N12.[Na+] | not fulfilled
* O=C([O-])C1=CS[C@@H]2/C(=C\c3cn4c5c(sc4n3)CCCC5)C(=O)N12.[Na+] | not fulfilled
* CCN1CCN(C(=O)N[C@@H](C(=O)N[C@@H]2C(=O)N3[C@@H]2SC(C)(C)[C@@H]3C(=O)O)c2ccccc2)C(=O)C1=O | not fulfilled

// query Consider O=C([O-])C1=CS[C@@H]2/C(=C\c3cn4c5c(sc4n3)COCC5)C(=O)N12.[Na+] . Does its ED50 lie strictly below 20 mg/kg?
// result not fulfilled

// query # TODO verify ED50 < 20 mg/kg strictly for this molecule: O=C([O-])C1=CS[C@@H]2/C(=C\c3cn4c5c(sc4n3)CCC5)C(=O)N12.[Na+]
// result fulfilled

====

- Tested on: Escherichia coli
- methodNotes: Antimicrobial activity against Escherichia coli GC 2805 expressing CcrA beta-lactamase after 18 to 24 hrs by broth microdilution method
- Assay type: functional
experimentalEndpoint: MIC

* O=C([O-])C1=CS[C@@H]2/C(=C\c3cn4c(n3)nc3n4CCCC3)C(=O)N12.[Na+] | > 64 µg/mL

Reported MIC for O=C([O-])C1=CS[C@@H]2/C(=C\c3cn4c5c(sc4n3)CCC5)C(=O)N12.[Na+] was > 64 µg/mL

The value of MIC measured for the compound C[C@]1(Cn2ccnn2)[C@H](C(=O)[O-])N2C(=O)C[C@H]2S1(=O)=O.[Na+] [TAZOBACTAM SODIUM] turned out to be > 64 µg/mL

Input O=C([O-])C1=CS[C@@H]2/C(=C\c3cc4oc5c(n4n3)CCOC5)C(=O)N12.[Na+] . Output MIC: > 64 µg/mL

Measured MIC, O=C([O-])C1=CS[C@@H]2/C(=C/c3cc4oc5c(n4n3)CCOC5)C(=O)N12.[Na+] : > 64 µg/mL

Per the record, O=C([O-])C1=CS[C@@H]2/C(=C\c3cn4c5c(sc4n3)CCCC5)C(=O)N12.[Na+] has MIC of > 64 µg/mL

Lab note: measured MIC of O=C([O-])C1=CS[C@@H]2/C(=C\c3cc4oc5c(n4n3)CCCC5)C(=O)N12.[Na+] was > 64 µg/mL

Reported MIC for CCOC(=O)N1CCc2c(oc3cc(/C=C4/C(=O)N5C(C(=O)[O-])=CS[C@H]45)nn23)C1.[Na+] was > 64 µg/mL

Item: O=C([O-])C1=CS[C@@H]2/C(=C\c3cn4c5c(sc4n3)COCC5)C(=O)N12.[Na+] | MIC: > 64 µg/mL

Value of MIC reported for the compound Cn1c2ccccc2n2cc(/C=C3/C(=O)N4C(C(=O)[O-])=CS[C@H]34)nc12.[Na+] is > 64 µg/mL

====

molecules and their reported log10(MIC)
- Tested on: Enterobacter cloacae
- methodNotes: Antimicrobial activity against Enterobacter cloacae GC 1475 expressing P99 beta-lactamase after 18 to 24 hrs by broth microdilution method
- Format: functional
Parameter value (number): base-10 log of MIC in µg/mL.

• CCOC(=O)N1CCc2c(oc3cc(/C=C4/C(=O)N5C(C(=O)[O-])=CS[C@H]45)nn23)C1.[Na+] = 1.81

Memo: C[C@]1(Cn2ccnn2)[C@H](C(=O)[O-])N2C(=O)C[C@H]2S1(=O)=O.[Na+] [TAZOBACTAM SODIUM] , reported log10(MIC): 1.81

The reported value for Cn1c2ccccc2n2cc(/C=C3/C(=O)N4C(C(=O)[O-])=CS[C@H]34)nc12.[Na+] in terms of log10(MIC) is 1.81

Every entry's value here was drawn from ChEMBL document CHEMBL1141585.
